Where do the numbers come from? From paper PMC9398005.

target or test system: Drosophila Su(H) WT (98-523) (Drosophila) (UniProt P28159)
method notes: ITC; RAM peptide, Hairless or SHARP in the syringe, Su(H) or Rbpj in the cell; 50 mM sodium phosphate, 150 mM sodium chloride; 20 injections of 14 uL; triplicate; one site binding model; 20°C by the methods, 25°C by the legend of Fig 6
assay endpoint: Kd (nM)
Could you give me the number in nM? Just the number is fine.

Returns the measured Kd for the input binder. Input: VLSTQRKRAHGVTWFPEGFRAPAAVMSR [Drosophila Notch RAM peptide (residues 1763-1790)]
187
